Data credit: patent US9907847B2

System: IFN-α
Experiment notes: Induction of interferon-α using fresh human whole blood (WB)
Format: cell-based
Stated conditions: three donors, overnight incubation, response as % of 2 μM resiquimod control, read-out: mean pEC50 for IFN-α (converted)
Structures can show the parent of a compound that is named as a salt.
Readout label: EC50

Look up EC50 for this molecule: `CCCCc1nc(N)c2[nH]cc(CCCCCCN3CC[C@H](F)C3)c2n1`
≤ 5.01 µM

Find the recorded EC50 belonging to CCCCc1nc(N)c2[nH]cc(CCCCCN3CCCC3)c2n1 [Example 9, formate] and report it.
≤ 5.01 µM

Recorded EC50 for `CCCCc1nc(N)c2[nH]cc(CCCCCN3CCC3)c2n1` , please?
≤ 5.01 µM

Report EC50 for `CCCCc1nc(N)c2[nH]cc(CCCCCN3CC[C@H](F)C3)c2n1` please.
≤ 5.01 µM

Returns the measured EC50 for the input molecule. Input: `CCCCc1nc(N)c2[nH]cc(CCCCCN3CC(O)C3)c2n1`
≤ 5.01 µM

Any idea what EC50 was measured for `CCCCc1nc(N)c2[nH]c(C)c(CCCCN3CCCCC3)c2n1` ?
≤ 5.01 µM

Which value of EC50 has been reported for `CCCCc1nc(N)c2[nH]c(C)c(CCCCN3CCCC3)c2n1` in the records?
≤ 5.01 µM

So what's the measured EC50 for this one? `CCCCc1nc(N)c2[nH]cc(CCCCCN3CCCCC3)c2n1`
≤ 5.01 µM

Please look up its EC50: `CCCCc1nc(N)c2[nH]cc(CCCCCN3CCC(O)CC3)c2n1`
≤ 5.01 µM

Endpoint output: EC50 of `CCCCc1nc(N)c2[nH]c(C)c(CCCCCN3CC[C@H](F)C3)c2n1` . Value?
≤ 5.01 µM

// returns reported EC50 for input `CCCCc1nc(N)c2[nH]c(C)c(CCCCCCN3CCCC3)c2n1`
≤ 5.01 µM

Tell me the measured EC50 of `COCCc1nc(N)c2[nH]cc(CCCCCN3CCC(F)CC3)c2n1` , please.
≤ 5.01 µM

Tell me the measured EC50 of `CCCCCc1nc(N)c2[nH]cc(CCCCCCN3CCCCC3)c2n1` , please.
≤ 5.01 µM

Query (molecule): `CCCCc1nc(N)c2[nH]cc(CCCCCN3CCC(F)(F)CC3)c2n1` ; field requested: EC50
≤ 5.01 µM

Please give the measured EC50 for this molecule: COCCc1nc(N)c2[nH]cc(CCCCCN3CC[C@H](F)C3)c2n1 [Example 27, formate]
≤ 5.01 µM

Any idea what EC50 was measured for `CCCCc1nc(N)c2[nH]cc(CCCCCN3CCC(F)CC3)c2n1` ?
≤ 5.01 µM

// query EC50 value for entry `CCCCc1nc(N)c2[nH]cc(CCCCCN3CC[C@H](O)C3)c2n1`
≤ 5.01 µM

# query: EC50 of entry COCCc1nc(N)c2[nH]cc(CCCCCCN3CCCCC3)c2n1 [Example 5, hydrochloride]
≤ 5.01 µM

For the molecule `CCCCc1nc(N)c2[nH]cc(CCCCCN3CC(C)C3)c2n1` , what EC50 is on record?
≤ 5.01 µM

Please give the measured EC50 for this molecule: `CCCCc1nc(N)c2[nH]c(C)c(CCCCCCN3CCC3)c2n1`
≤ 5.01 µM

What does the data say about its EC50? Entry: `CCCCc1nc(N)c2[nH]cc(CCCCCN3CCC[C@H]3C)c2n1`
≤ 5.01 µM

// EC50 lookup, key: `CCCCc1nc(N)c2[nH]c(C)c(CCCCCCN3CCCCC3)c2n1`
≤ 5.01 µM

Given the entry `COCCc1nc(N)c2[nH]cc(CCCCCCN3CCCCCC3)c2n1` , report its measured EC50.
≤ 5.01 µM

I am curious: what EC50 value has been reported for `CCCCc1nc(N)c2[nH]cc(CCCCCCN3CCC(F)CC3)c2n1` ?
≤ 5.01 µM

// returns reported EC50 for input `CCCCc1nc(N)c2[nH]c(C)c(CCCCCN3CCC3)c2n1`
≤ 5.01 µM

I would be grateful if you could share the reported EC50 for `CCCCc1nc(N)c2[nH]c(C)c(CCCCN3CCCCCC3)c2n1` .
≤ 5.01 µM

I'd like to know its EC50. The molecule in question is `CCOCc1nc(N)c2[nH]cc(CCCCCCN3CCCCC3)c2n1`
≤ 5.01 µM

Query (molecule): `CCCCc1nc(N)c2[nH]c(C)c(CCCCCN3CCCC3)c2n1` ; field requested: EC50
≤ 5.01 µM

Suppose we examine the molecule `CCCCc1nc(N)c2[nH]cc(CCCCCN3CCCCCC3)c2n1` ; what EC50 value has been reported?
≤ 5.01 µM

So what does the record say about EC50 for `CCCCc1nc(N)c2[nH]cc(CCCCCCN3CCCC3)c2n1` ?
≤ 5.01 µM

Dear colleague, I am looking for the recorded EC50 of the following molecule: `CCCCc1nc(N)c2[nH]c(C)c(CCCCCN3CC(F)C3)c2n1`
≤ 5.01 µM

Reported EC50 for CCCCc1nc(N)c2[nH]cc(CCCCCCN3CCCCC3)c2n1 [Example 1, formate] : what is it?
≤ 5.01 µM

Name the reported EC50 value associated with the molecule `CCCCc1nc(N)c2[nH]cc(CCCCCCN3CC[C@@H](F)C3)c2n1`
≤ 5.01 µM

Quick check: EC50 of `CCCCc1nc(N)c2[nH]c(C)c(CCCCCN3CC[C@@H](F)C3)c2n1` ?
≤ 5.01 µM

# query: EC50 of entry COCCc1nc(N)c2[nH]cc(CCCCCN3CC[C@@H](F)C3)c2n1 [Example 26, formate]
≤ 5.01 µM

For the molecule `COCCc1nc(N)c2[nH]cc(CCCCCN3CCCC3)c2n1` , what EC50 is on record?
≤ 5.01 µM

Sample `CCCCc1nc(N)c2[nH]cc(CCCCN3CCCCC3)c2n1` — what was its EC50?
≤ 5.01 µM

Using the record for `CCCCc1nc(N)c2[nH]c(C)c(CCCCCN3CCC(F)CC3)c2n1` , report its EC50.
≤ 5.01 µM
